Hey, just so you know, these numbers are from patent US6376510B1.

system: anesthetized cats (evoked responses of anterior tibial muscle); assay: animal or person; details: in vivo
ΔBP (change in arterial blood pressure) of -20% or higher: rule met. Under -20%: rule not met.

{"MOLECULE": "CC(=O)Oc1ccc(C[N+]2(C)C3CCCC2CC(OC(=O)C2CCC2C(=O)OC2CC4CCCC(C2)[N+]4(C)Cc2ccc(OC(C)=O)c(OC(C)=O)c2)C3)cc1OC(C)=O.[Br-].[Br-] (stereo not drawn)", "CLASSIFICATION": "rule met"}
{"MOLECULE": "CC(=O)Oc1ccc(C[N+]2(C)C3CCC2CC(OC(=O)C2C4C=CC(C4)C2C(=O)OC2CC4CCC(C2)[N+]4(C)Cc2ccc(OC(C)=O)c(OC(C)=O)c2)C3)cc1OC(C)=O.[Br-].[Br-] (stereo not drawn) [bis[N-(3,4-diacetoxybenzyl)tropanium-3α-yl]trans-3,6-endomet]", "CLASSIFICATION": "rule not met"}
{"MOLECULE": "CC(=O)Oc1ccc(C[N+]2(C)C3CCCC2CC(OC(=O)CCCC(=O)OC2CC4CCCC(C2)[N+]4(C)Cc2ccc(OC(C)=O)c(OC(C)=O)c2)C3)cc1OC(C)=O.[Br-].[Br-] (stereo not drawn)", "CLASSIFICATION": "rule not met"}
{"MOLECULE": "COc1cc(C[N+]2(C)C3CCC2CC(OC(=O)C2C4C=CC(C4)C2C(=O)OC2CC4CCC(C2)[N+]4(C)Cc2ccc(OC(C)=O)c(OC)c2)C3)ccc1OC(C)=O.[Br-].[Br-] (stereo not drawn)", "CLASSIFICATION": "rule met"}
{"MOLECULE": "CC(=O)Oc1ccc(C[N+]2(C)C3CCCC2CC(OC(=O)CCCCC(=O)OC2CC4CCCC(C2)[N+]4(C)Cc2ccc(OC(C)=O)c(OC(C)=O)c2)C3)cc1OC(C)=O.[Br-].[Br-] (stereo not drawn)", "CLASSIFICATION": "rule not met"}
